B1: TPR t1 (parent)
chain: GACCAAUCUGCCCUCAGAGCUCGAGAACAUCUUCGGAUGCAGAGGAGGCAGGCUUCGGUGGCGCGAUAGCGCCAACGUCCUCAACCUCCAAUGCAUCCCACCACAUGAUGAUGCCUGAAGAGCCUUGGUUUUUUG

variants of: B1; experiment: polymerase ribozyme fitness, log enrichment relative to wild type (log ratio); higher = more active; in vitro selection for triplet polymerase activity
quantityMeasured: polymerase ribozyme fitness (log ratio)
Give bare numbers.

{"variantDesignation": "C73U A119U", "measuredValue": -0.348}

Here are 3 variants. What values of polymerase ribozyme fitness (log ratio) were reported for them?
1. G45U A46U U106G
2. C70U C72A A103U A108G G110A
3. A29U C53A U54C C76U C85A U131C

Result:
1: -3.7; 2: -6.1; 3: -3.17
